These data points were gathered from paper PMC3014449.

System: classical pathway activation of complement in human serum
Test method notes: Inhibition of complement activation
Format: biochemical
Test conditions: complement inhibition assay, initiation via the classical pathway, human serum; NA: not active at the highest concentrations tested
Reported endpoint: log10 of IC50 (log10 of the value in µM)

| Substance | log10 of IC50 |
| --- | --- |
| Ac-I[CVYQDW(NMe)GAHRC]T-NH2 [Peptide 8] | 0.16 |
| Ac-I[CVYQ(NMe)DWGAHRC]T-NH2 [Peptide 6] | 1.64 |
| Ac-I[CVYQDWGAH(NMe)RC]T-NH2 [Peptide 11] | 1.51 |
| Ac-I[CVY(NMe)QDWGAHRC]T-NH2 [Peptide 5] | 1.52 |
| Ac-I[CVYQDWGA(NMe)HRC]T-NH2 [Peptide 10] | 1.97 |
| Ac-I[CVYQDWGAHR(NMe)C]T-NH2 [Peptide 12] | 2.19 |
| Ac-I[CVYQD(NMe)WGAHRC]T-NH2 [Peptide 7] | 1.40 |

###

Tested on: classical pathway activation of complement in human serum
Test method notes: Inhibition of complement activation
Type: biochemical
Test conditions: complement inhibition assay, initiation via the classical pathway, human serum; NA: not active at the highest concentrations tested
Reported endpoint: IC50

| Substance | Endpoint value |
| --- | --- |
| Ac-I[CV(NMe)YQDWGAHRC]T-NH2 [Peptide 4] | completely inactive |
| Ac-I[CVYQDWG(NMe)AHRC]T-NH2 [Peptide 9] | completely inactive |
| Ac-I[C(NMe)VYQDWGAHRC]T-NH2 [Peptide 3] | completely inactive |
